target: human ether-à-go-go-related gene (hERG) potassium channel (human, UniProt Q12809); assay: primary screen, population patch clamp on CHO cells stably expressing hERG; higher = less effect of the substance
Sequence (Q12809 whole entry, looked up): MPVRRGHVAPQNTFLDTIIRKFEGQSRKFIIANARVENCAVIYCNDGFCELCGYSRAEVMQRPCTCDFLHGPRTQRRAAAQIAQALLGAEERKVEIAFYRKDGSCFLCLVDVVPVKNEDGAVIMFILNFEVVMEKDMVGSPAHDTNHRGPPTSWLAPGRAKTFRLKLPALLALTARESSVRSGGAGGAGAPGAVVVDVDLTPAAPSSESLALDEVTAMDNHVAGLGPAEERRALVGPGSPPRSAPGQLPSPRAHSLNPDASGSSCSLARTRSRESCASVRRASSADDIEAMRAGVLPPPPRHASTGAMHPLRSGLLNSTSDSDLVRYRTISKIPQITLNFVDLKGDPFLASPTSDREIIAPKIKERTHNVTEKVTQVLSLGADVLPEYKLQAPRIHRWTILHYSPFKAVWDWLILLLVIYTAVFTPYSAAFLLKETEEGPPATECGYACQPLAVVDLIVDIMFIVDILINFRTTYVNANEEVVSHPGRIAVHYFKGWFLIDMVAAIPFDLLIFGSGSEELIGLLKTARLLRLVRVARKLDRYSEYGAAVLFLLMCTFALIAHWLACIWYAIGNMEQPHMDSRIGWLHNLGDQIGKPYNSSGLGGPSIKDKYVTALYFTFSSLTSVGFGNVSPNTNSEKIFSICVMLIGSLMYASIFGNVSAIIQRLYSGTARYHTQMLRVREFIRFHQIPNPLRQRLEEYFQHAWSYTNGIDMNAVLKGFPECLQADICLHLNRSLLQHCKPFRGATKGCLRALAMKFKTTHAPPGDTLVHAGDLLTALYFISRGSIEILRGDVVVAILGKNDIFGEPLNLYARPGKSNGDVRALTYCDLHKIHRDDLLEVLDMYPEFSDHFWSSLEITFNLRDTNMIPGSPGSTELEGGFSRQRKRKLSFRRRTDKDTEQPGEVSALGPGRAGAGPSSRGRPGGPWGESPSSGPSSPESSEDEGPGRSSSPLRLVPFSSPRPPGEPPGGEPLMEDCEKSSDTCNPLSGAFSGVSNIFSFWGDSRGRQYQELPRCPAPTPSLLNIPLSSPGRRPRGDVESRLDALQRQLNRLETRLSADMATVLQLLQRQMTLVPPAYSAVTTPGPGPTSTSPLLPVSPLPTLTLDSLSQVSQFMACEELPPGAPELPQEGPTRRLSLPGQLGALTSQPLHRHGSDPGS
About 2,200 (0.71%) of roughly 310,000 compounds showed an effect of 50% or more. Effects have a minus sign here. This is one part of a sample in which strong results are shown more often than they occur.
REPORTED ENDPOINT: hERG current change (%, negative = inhibition) at 1uM (%)
// units = %; emit number, no label

See these solved cases before continuing.
COMPOUND | UOM | OBSERVED
O=C(c1ccc(Cl)s1)N1CCCC(N2CCN(c3ccc(F)cc3)CC2)C1 (stereo not shown) | % | -63.2
CC(C)=CC(=O)N1CCCC(N2CCN(c3ccc(F)cc3)CC2)C1 (stereo not shown) | % | 19.1
Clc1ccc2[nH]c3c(NCCN4CCOCC4)ncnc3c2c1 | % | -2.76

Input line: Kindly state the measured hERG current change (%, negative = inhibition) at 1uM obtained for CCN1CCCC1CNc1ncnc2c1[nH]c1ccc(F)cc12 (stereo not shown) with human ether-à-go-go-related gene (hERG) potassium channel (human, UniProt Q12809).
Output line: -81.4

Input line: Kindly state the measured hERG current change (%, negative = inhibition) at 1uM obtained for Clc1ccc2[nH]c3c(NCC4CCCO4)ncnc3c2c1 (stereo not shown) with human ether-à-go-go-related gene (hERG) potassium channel (human, UniProt Q12809).
Output line: -3.05

Input line: Kindly state the measured hERG current change (%, negative = inhibition) at 1uM obtained for Cc1ccccc1N1CCN(C2CCCN(C(=O)c3ccc(Cl)s3)C2)CC1 (stereo not shown) with human ether-à-go-go-related gene (hERG) potassium channel (human, UniProt Q12809).
Output line: 1.61

Input line: Kindly state the measured hERG current change (%, negative = inhibition) at 1uM obtained for O=C(c1cccs1)N1CCCC(N2CCN(c3ccc(F)cc3)CC2)C1 (stereo not shown) with human ether-à-go-go-related gene (hERG) potassium channel (human, UniProt Q12809).
Output line: -52.1

Input line: Kindly state the measured hERG current change (%, negative = inhibition) at 1uM obtained for "Fc1ccc2[nH]c3c(NCCN4CCOCC4)ncnc3c2c1" with human ether-à-go-go-related gene (hERG) potassium channel (human, UniProt Q12809).
Output line: 8.84

Input line: Kindly state the measured hERG current change (%, negative = inhibition) at 1uM obtained for CCN1CCCC1CNC(=O)c1cc2cc(OC)c(OC)cc2[nH]1 (stereo not shown) with human ether-à-go-go-related gene (hERG) potassium channel (human, UniProt Q12809).
Output line: 16.2

Input line: Kindly state the measured hERG current change (%, negative = inhibition) at 1uM obtained for Cc1cc(C(=O)N2CCCC(N3CCN(c4ccc(F)cc4)CC3)C2)no1 (stereo not shown) with human ether-à-go-go-related gene (hERG) potassium channel (human, UniProt Q12809).
Output line: -19.1

###

target: human ether-à-go-go-related gene (hERG) potassium channel (human); assay: primary screen, population patch clamp on CHO cells stably expressing hERG; higher = less effect of the substance
About 2,200 (0.71%) of roughly 310,000 compounds showed an effect of 50% or more. Effects have a minus sign here. The list comes from a sample in which strong results are over-represented; it also holds close analogues and randomly drawn compounds.
REPORTED ENDPOINT: hERG current change (%, negative = inhibition) at 1uM (%)
// units = %; emit number, no label

See these solved cases before continuing.
COMPOUND | OBSERVED
COC(=O)c1ccccc1NC(=S)NC(=O)c1ccc2c(c1)OCO2 | 20.6
O=C(NC(=S)Nc1ccccc1Br)c1ccc2c(c1)OCO2 | -67.9
COc1ccc(N2CCN(C(=O)Cn3cnc4c(cnn4-c4ccccc4)c3=O)CC2)cc1 | 5.22
CCCc1nnc(NC(=O)c2nc(S(=O)(=O)Cc3cccc(C)c3)ncc2Cl)s1 | 21

Input line: Kindly state the measured hERG current change (%, negative = inhibition) at 1uM obtained for COc1ccc(N2CCN(C(C)C(=O)N(C)Cc3ccccc3)CC2)cc1 (centres unmarked) with human ether-à-go-go-related gene (hERG) potassium channel (human).
Output line: -10

Input line: Kindly state the measured hERG current change (%, negative = inhibition) at 1uM obtained for "Cc1ccc(Cl)c(OCC(=O)NC2CCN(Cc3ccccc3)CC2)c1" with human ether-à-go-go-related gene (hERG) potassium channel (human).
Output line: -93.9

###

Target: human ether-à-go-go-related gene (hERG) potassium channel (human)
Assay: primary screen, population patch clamp on CHO cells stably expressing hERG; higher = less effect of the substance
Description: Briefly, Chinese hamster ovary (CHO) cells stably expressing the hERG channel were dislodged from tissue culture flasks and dispensed into PPC plates. […] Small molecule effects on hERG current density were quantified by […].
Screen size: about 310,000 compounds; about 2,200 (0.71%) showed an effect of 50% or more. The effect is printed as a negative number. Only a selection was taken, and strong results are over-represented in it overall.
Mark met for reported hERG current change (%, negative = inhibition) at 1uM of 10% or greater; mark not met for anything smaller.

MOLECULE | LABEL VALUE
CC1(c2nnc(-c3ccncc3)o2)CC(c2cccc(Cl)c2)=NO1 (stereo not shown) | met
Cc1c(C(=O)N2CCN(CCc3ccccn3)CC2)oc2ccc(F)cc12 | not met
Cc1c(C(=O)N2CCN(CCc3ccccc3)CC2)oc2ccccc12 | not met
O=C1C(Cl)=C(N2CCN(Cc3ccccc3)CC2)C(=O)N1c1ccccc1 | not met
Cc1c(C(=O)N2CCOCC2)[nH]c2ccc(OCc3ccccc3)cc12 | not met
COc1ccc(N(C(=O)Cn2nnc3ccccc32)C(C(=O)NC(C)(C)C)c2ccc(OC)c(O)c2)cc1 (stereo not shown) | met
COc1ccc2[nH]c(C(=O)NCc3ccccc3)c(C)c2c1.Cl | met
COC(=O)c1sc(C(C)(C)C)cc1CS(=O)(=O)c1ccc(Cl)cc1 | met

Input line: Is the recorded value of hERG current change (%, negative = inhibition) at 1uM equal to or greater than 10% for this molecule? "Cc1cc(CSc2ccccc2C(=O)O)on1"
Output line: met

Input line: Is the recorded value of hERG current change (%, negative = inhibition) at 1uM equal to or greater than 10% for this molecule? "O=C(NC(=S)Nc1ncc(Br)cc1Br)c1cncc(Br)c1"
Output line: not met

###

biological target: human ether-à-go-go-related gene (hERG) potassium channel (human); assay: primary screen, population patch clamp on CHO cells stably expressing hERG; higher = less effect of the substance
Among all 310,000 compounds or so, about 2,200 (0.71%) showed an effect of 50% or more. Effects have a minus sign here. The sample holds strong results, similar compounds and a random draw of the others, so the mix is not that of the screen.
REPORTED ENDPOINT: hERG current change (%, negative = inhibition) at 1uM (%)
// units = %; emit number, no label

See these solved cases before continuing.
COMPOUND | UOM | OBSERVED
Cc1cc(C[n+]2ccsc2N)c2ncccc2c1.[Br-] | % | -20.1
Cc1cccc([C@@H]2[C@@H]3C(=O)N(Cc4ccccc4)C(=O)[C@@H]3[C@]3(Cc4ccccc4)C(=O)N(c4cccc(F)c4)C(=O)N23)c1 | % | 9.13
COc1ccc(-c2nc(C#N)c(NCCc3ccccc3)o2)cc1OC | % | 10.5

Input line: Report hERG current change (%, negative = inhibition) at 1uM for "C(=C\CSc1nnnn1-c1ccccc1)/CSc1nnnn1-c1ccccc1" please.
Output line: 0.568

Input line: Report hERG current change (%, negative = inhibition) at 1uM for CC1=[N+]([O-])C2(N)CCc3nonc3C2(O)C1 (stereo not drawn) please.
Output line: 6.29

Input line: Report hERG current change (%, negative = inhibition) at 1uM for "CC(=O)c1ccc(S(=O)(=O)Nc2ccccc2C(=O)NC2CC2)cc1" please.
Output line: 9.72

###

Reported hERG current change (%, negative = inhibition) at 1uM is given for each of the following molecules.
Target: human ether-à-go-go-related gene (hERG) potassium channel (human)
Assay: primary screen, population patch clamp on CHO cells stably expressing hERG; higher = less effect of the substance
Description: Briefly, Chinese hamster ovary (CHO) cells stably expressing the hERG channel were dislodged from tissue culture flasks and dispensed into PPC plates. […] Small molecule effects on hERG current density were quantified by […].
Out of some 310,000 compounds screened, about 2,200 (0.71%) showed an effect of 50% or more. Effects have a minus sign here. The sample as a whole holds a higher share of strong results than the screen did.
// units = %; emit number, no label

See these solved cases before continuing.
MOLECULE | TARGET DESC | UOM | OBSERVED
Cc1ccc(CC(=O)NC2CCN(Cc3ccccc3)CC2)cc1 | human ether-à-go-go-related gene (hERG) potassium channel (human) | % | 7.9
CC(C)C(=O)N1CCN(c2ccccc2NC(=O)Cc2ccc(Cl)cc2)CC1 | human ether-à-go-go-related gene (hERG) potassium channel (human) | % | -38.9
CN1CCN(c2ccc(Cl)cc2NC(=O)CC2OC(=O)c3ccccc32)CC1 (stereo not drawn) | human ether-à-go-go-related gene (hERG) potassium channel (human) | % | -61.2
Cc1ccc(CN2CCC(NC(=O)c3ccccc3)CC2)cc1 | human ether-à-go-go-related gene (hERG) potassium channel (human) | % | -52.8
Cc1cc(C)nc(N2CCC(C(=O)NCc3ccco3)CC2)n1 | human ether-à-go-go-related gene (hERG) potassium channel (human) | % | 1.22

Input line: Report hERG current change (%, negative = inhibition) at 1uM for "COc1ccc(/C=C/C(=O)NC2CCN(Cc3ccccc3)CC2)cc1OC" please.
Output line: 12

Input line: Report hERG current change (%, negative = inhibition) at 1uM for "COc1ccc(CC(=O)Nc2cc(S(=O)(=O)N3CCCCC3)ccc2N2CCN(C)CC2)cc1" please.
Output line: -7.26

Input line: Report hERG current change (%, negative = inhibition) at 1uM for "Nc1nc(NCc2ccco2)nc(Nc2cccc(F)c2)c1[N+](=O)[O-]" please.
Output line: 18.1

Input line: Report hERG current change (%, negative = inhibition) at 1uM for "CN1CCN(c2ccccc2NC(=O)Cc2ccc(Cl)cc2)CC1" please.
Output line: -59.4

Input line: Report hERG current change (%, negative = inhibition) at 1uM for "Fc1ccc(NC(=S)NC2CCN(Cc3ccccc3)CC2)cc1" please.
Output line: 6.75
